test.system: human kinase Mps-1 (Homo sapiens)
Construct: N-terminally GST-tagged human full length recombinant Mps-1 kinase; GST (N)
Sequence (P33981 whole entry): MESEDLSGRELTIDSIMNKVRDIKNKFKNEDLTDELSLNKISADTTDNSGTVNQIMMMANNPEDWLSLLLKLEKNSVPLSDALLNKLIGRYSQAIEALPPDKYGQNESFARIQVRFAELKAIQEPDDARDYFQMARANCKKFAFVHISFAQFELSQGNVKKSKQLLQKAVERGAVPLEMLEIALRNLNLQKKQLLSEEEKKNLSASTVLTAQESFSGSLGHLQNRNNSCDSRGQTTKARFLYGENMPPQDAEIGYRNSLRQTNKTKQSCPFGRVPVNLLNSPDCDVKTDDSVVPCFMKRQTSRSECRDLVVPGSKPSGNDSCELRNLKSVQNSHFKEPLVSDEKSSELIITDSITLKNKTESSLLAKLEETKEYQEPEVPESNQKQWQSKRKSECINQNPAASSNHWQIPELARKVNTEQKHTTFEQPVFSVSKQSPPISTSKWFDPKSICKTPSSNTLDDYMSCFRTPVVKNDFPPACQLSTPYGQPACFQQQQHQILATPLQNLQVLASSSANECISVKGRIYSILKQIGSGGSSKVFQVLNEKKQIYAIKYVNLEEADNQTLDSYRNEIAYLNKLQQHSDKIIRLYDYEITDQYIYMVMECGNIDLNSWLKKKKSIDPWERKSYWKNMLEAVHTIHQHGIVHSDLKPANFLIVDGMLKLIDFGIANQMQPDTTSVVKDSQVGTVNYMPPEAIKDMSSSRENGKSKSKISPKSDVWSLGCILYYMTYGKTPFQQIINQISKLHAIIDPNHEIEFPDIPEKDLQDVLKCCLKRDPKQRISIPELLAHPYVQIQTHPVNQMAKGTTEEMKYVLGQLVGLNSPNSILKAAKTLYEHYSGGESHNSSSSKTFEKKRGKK
test.summary: Mps-1 kinase assay (TR-FRET)
experimental.context: Mps-1 TR-FRET kinase assay; avg; read-out: Mps1 avg (IC50 [mol/l])
pIC50: −log10 of the molar value.
pIC50 values, listed per item

Field: example entries. Status: answers known.
{"columns": ["compound", "result"],
 "data": [
  ["Cc1nsc(Nc2ccc(C#N)cn2)c1C(=O)Nc1ccc(OCCC(=O)OC(C)(C)C)nc1 [Example 199]", "< 4.70"],
  ["Cc1nsc(Nc2cnc(C(F)(F)F)cn2)c1C(=O)Nc1ccc(OC2CCN(C(=O)OC(C)(C)C)CC2)c(F)c1 [Example 217]", "< 4.70"],
  ["Cc1nsc(Nc2cncc(C(F)(F)F)n2)c1C(=O)Nc1ccc(OC2CCN(C(=O)OC(C)(C)C)CC2)nc1 [Example 12]", "≤ 4.70"],
  ["Cc1nsc(Nc2cnc3ccccc3n2)c1C(=O)Nc1ccc(C(=O)OC(C)(C)C)cc1 [Example 181]", "< 4.70"]
]}

// pIC50 lookup, key: Cc1nsc(Nc2cncc(C(F)(F)F)n2)c1C(=O)Nc1ccc(OC2CCN(CCF)CC2)c(F)c1 [Example 223]
< 4.70

// pIC50 lookup, key: COC(=O)CCCc1ccc(NC(=O)c2c(C)nsc2Nc2cc(C#N)ccn2)cc1 [Example 256]
< 4.70

Fill blank: measured pIC50 of the compound Cc1nsc(Nc2cnc(C(F)(F)F)cn2)c1C(=O)Nc1ccc(F)c(OCC2CCN(CCC(F)(F)F)CC2)c1 [Example 311] is ____.
< 4.70

Given the compound Cc1nsc(Nc2cnc(C(F)(F)F)cn2)c1C(=O)Nc1ccc(OCC2CCN(CC(F)F)CC2)nc1 [Example 345] , what is its reported pIC50?
< 4.70

Name the reported pIC50 value associated with the compound Cc1nsc(Nc2cnc(C(F)(F)F)cn2)c1C(=O)Nc1ccc(OCCCN(C)CC(F)F)nc1 [Example 353]
4.72

Consider the compound Cc1nsc(Nc2cncc(C(F)(F)F)n2)c1C(=O)Nc1ccc(OC2CCN(C(C)C)CC2)nc1 [Example 218] and give its measured pIC50.
< 4.70

Any idea what pIC50 was measured for Cc1nsc(Nc2cc(C#N)ccn2)c1C(=O)Nc1cccc(C(=O)NC2CC2)c1 [Example 175] ?
< 4.70

I would be grateful if you could share the reported pIC50 for Cc1nsc(Nc2ccc(C#N)cn2)c1C(=O)Nc1ccc(F)c(C(N)=O)c1 [Example 203] .
< 4.70

Need pIC50, item Cc1nsc(Nc2cnc(C(F)(F)F)cn2)c1C(=O)Nc1ccc(OCC2CCCN(CCF)C2)nc1 (stereo not shown) [Example 325]
≤ 4.70

Reported pIC50, compound Cc1nsc(Nc2cnc3ccccc3n2)c1C(=O)Nc1cccc(NS(=O)(=O)C2CN(CC(F)(F)F)C2)c1 [Example 285] : ____
< 4.70

Sample Cc1nsc(Nc2cnc3ccccc3n2)c1C(=O)Nc1cccc(NS(=O)(=O)C2CCN(CC(F)F)CC2)c1 [Example 282] — what was its pIC50?
< 4.70

Would you mind telling me what pIC50 value was observed for Cc1nsc(Nc2cncc(C(F)(F)F)n2)c1C(=O)Nc1ccc(C(=O)OC(C)(C)C)cc1 [Example 193] ?
< 4.70

For the compound shown here, Cc1nsc(Nc2ccc(C#N)cn2)c1C(=O)Nc1ccc(OC2CCN(CC(F)(F)F)CC2)nc1 [Example 30] , give the reported pIC50.
≤ 4.70

Item Cc1nsc(Nc2cnc(C(F)(F)F)cn2)c1C(=O)Nc1ccc(OCCNC(=O)OC(C)(C)C)c(F)c1 [Example 215] has what recorded pIC50?
< 4.70

May I ask what pIC50 has been recorded for Cc1nsc(Nc2ccc(C#N)cn2)c1C(=O)Nc1ccc(OC2CCN(CCF)CC2)nc1 [Example 29] ?
≤ 4.70

Any idea what pIC50 was measured for CNS(=O)(=O)c1ccc(NC(=O)c2c(C)nsc2Nc2cc(C#N)ccn2)cc1 [Example 210] ?
< 4.70

What value of pIC50 has been recorded for this entry: Cc1nsc(Nc2cnc3ccccc3n2)c1C(=O)Nc1ccc(NC2CC2)nc1 [Example 172]
< 4.70

For the compound Cc1nsc(Nc2cnc(C(F)(F)F)cn2)c1C(=O)Nc1ccc(OCCNC(=O)OC(C)(C)C)nc1 [Example 192] , what pIC50 is on record?
< 4.70

Find the recorded pIC50 belonging to Cc1nsc(Nc2cc(C#N)ccn2)c1C(=O)Nc1ccc(OC2CCNCC2)nc1 [Example 24] and report it.
5.05

Which measured pIC50 value corresponds to Cc1nsc(Nc2cnc(C(F)(F)F)cn2)c1C(=O)Nc1ccc(O[C@@H]2CCN(CC(F)(F)F)C[C@@H]2F)nc1 [Example 138] ?
< 4.70
